# Tested on: Streptococcus pyogenes Aronson
# procedure.text: Antibiotic activity in vitro, agar dilution method in DST agar (MIC)
# Type: cell-based
measure: MIC (µg/mL)
Give just the number in µg/mL; leave the unit off.

Observe how each entry below is paired with its result.
                         structure_notation  measured_result
0  Cn1ccc[n+]1CC1=C(C(=O)[O-])N2C(=O)[C@@H](NC(=O)/C(=N\OC(C)(C)C(=O)O)c3nsc(N)n3)[C@H]2SC1              0.5
1  CC(C)(O/N=C(\C(=O)N[C@@H]1C(=O)N2C(C(=O)[O-])=C(C[n+]3cccc(CC(=O)O)c3)CS[C@H]12)c1nsc(N)n1)C(=O)O                1

[Q] Which MIC value belongs to `CO/N=C(\C(=O)N[C@@H]1C(=O)N2C(C(=O)[O-])=C(C[n+]3ccc(C(=O)O)cc3)CS[C@H]12)c1nsc(N)n1` ?
[A] 0.1

[Q] What measured MIC goes with `CO/N=C(\C(=O)N[C@@H]1C(=O)N2C(C(=O)[O-])=C(C[n+]3cccn3C)CS[C@H]12)c1nsc(N)n1` ?
[A] 0.1

[Q] Given the compound `CO/N=C(\C(=O)N[C@@H]1C(=O)N2C(C(=O)[O-])=C(C[n+]3cccc(Br)c3)CS[C@H]12)c1nsc(N)n1` , what is its reported MIC?
[A] 0.05

# credit: patent EP0047977A2
